# Method description: activity coefficient (dimensionless); of the first substance listed, at infinite dilution; xn = mol fraction of the nth substance listed
# Study conditions: 318.15 K; 101 kPa; Liquid; Chromatography; x1 = 0
activity coefficient values, listed per item
Number only, please.

Example cases with answers are listed next.
molecule="CO [methanol] + CCCC[n+]1cccc(C)c1.O=S(=O)([O-])C(F)(F)F" endpoint_result=0.642
molecule="C=CCCC [1-pentene] + CCCC[n+]1cccc(C)c1.O=S(=O)([O-])C(F)(F)F" endpoint_result=8.44

Let us move to another entry and its activity coefficient.
Ask: Tell me its activity coefficient given Cc1ccccc1 [toluene] + CCCC[n+]1cccc(C)c1.O=S(=O)([O-])C(F)(F)F as the entry.
Result: 1.76

---

activity coefficient values, listed per item
# Method description: activity coefficient (dimensionless); of the first substance listed, at infinite dilution; xn = mol fraction of the nth substance listed
# Study conditions: 338.15 K; 101 kPa; Liquid; Chromatography; x1 = 0
Number only, please.

Example cases with answers are listed next.
molecule="C1CCCCC1 [cyclohexane] + CCCC[n+]1cccc(C)c1.O=S(=O)([O-])C(F)(F)F" endpoint_result=11.1
molecule="c1ccsc1 [thiophene] + CCCC[n+]1cccc(C)c1.O=S(=O)([O-])C(F)(F)F" endpoint_result=0.937
molecule="C#CCCCCC [1-heptyne] + CCCC[n+]1cccc(C)c1.O=S(=O)([O-])C(F)(F)F" endpoint_result=4.37
molecule="CC(C)=O [acetone] + CCCC[n+]1cccc(C)c1.O=S(=O)([O-])C(F)(F)F" endpoint_result=0.77
molecule="CCCO [propan-1-ol] + CCCC[n+]1cccc(C)c1.O=S(=O)([O-])C(F)(F)F" endpoint_result=1
molecule="CCCOCCC [dipropyl ether] + CCCC[n+]1cccc(C)c1.O=S(=O)([O-])C(F)(F)F" endpoint_result=9.6
molecule="CCOCC [diethyl ether] + CCCC[n+]1cccc(C)c1.O=S(=O)([O-])C(F)(F)F" endpoint_result=4.14
molecule="CCCCC [pentane] + CCCC[n+]1cccc(C)c1.O=S(=O)([O-])C(F)(F)F" endpoint_result=15.5

Let us move to another entry and its activity coefficient.
Ask: Tell me its activity coefficient given CCC(=O)CC [pentan-3-one] + CCCC[n+]1cccc(C)c1.O=S(=O)([O-])C(F)(F)F as the entry.
Result: 1.44

---

# Method description: activity coefficient (dimensionless); of the first substance listed, at infinite dilution; xn = mol fraction of the nth substance listed
# Study conditions: 328.15 K; 101 kPa; Liquid; Chromatography; x1 = 0
Reported metric: activity coefficient

compound="C1CCOC1 [tetrahydrofuran] + CCCC[n+]1cccc(C)c1.O=S(=O)([O-])C(F)(F)F" reported_metric="activity coefficient" endpoint_result=1.21

Ask: Tell me its activity coefficient given C=CCCCC [hex-1-ene] + CCCC[n+]1cccc(C)c1.O=S(=O)([O-])C(F)(F)F as the entry.
Result: 11.2

Ask: Tell me its activity coefficient given C#CCCCCCC [1-octyne] + CCCC[n+]1cccc(C)c1.O=S(=O)([O-])C(F)(F)F as the entry.
Result: 5.97

Ask: Tell me its activity coefficient given Cc1ccccc1C [1,2-dimethylbenzene] + CCCC[n+]1cccc(C)c1.O=S(=O)([O-])C(F)(F)F as the entry.
Result: 2.2

Ask: Tell me its activity coefficient given CCOCC [diethyl ether] + CCCC[n+]1cccc(C)c1.O=S(=O)([O-])C(F)(F)F as the entry.
Result: 4.18

Ask: Tell me its activity coefficient given C1CCCC1 [cyclopentane] + CCCC[n+]1cccc(C)c1.O=S(=O)([O-])C(F)(F)F as the entry.
Result: 8.51

Ask: Tell me its activity coefficient given CCC(=O)CC [pentan-3-one] + CCCC[n+]1cccc(C)c1.O=S(=O)([O-])C(F)(F)F as the entry.
Result: 1.42

---

# Method description: activity coefficient (dimensionless); of the first substance listed, at infinite dilution; xn = mol fraction of the nth substance listed
# Study conditions: 358.15 K; 101 kPa; Liquid; Chromatography; x1 = 0
activity coefficient values, listed per item
Number only, please.

molecule="CCCOCCC [dipropyl ether] + CCCC[n+]1cccc(C)c1.O=S(=O)([O-])C(F)(F)F" endpoint_result=9.14

Ask: Tell me its activity coefficient given Cc1cccc(C)c1 [1,3-dimethylbenzene] + CCCC[n+]1cccc(C)c1.O=S(=O)([O-])C(F)(F)F as the entry.
Result: 2.76

Ask: Tell me its activity coefficient given Cc1ccccc1C [1,2-dimethylbenzene] + CCCC[n+]1cccc(C)c1.O=S(=O)([O-])C(F)(F)F as the entry.
Result: 2.33

---

# Method description: activity coefficient (dimensionless); of the first substance listed, at infinite dilution; xn = mol fraction of the nth substance listed
# Study conditions: 338.15 K; 101 kPa; Liquid; Chromatography; x1 = 0
Reported metric: activity coefficient
Number only, please.

molecule="CCCCCCCCCC [decane] + CCCC[n+]1cccc(C)c1.O=S(=O)([O-])C(F)(F)F" reported_metric="activity coefficient" endpoint_result=80.2
molecule="C1CCCCCCC1 [cyclooctane] + CCCC[n+]1cccc(C)c1.O=S(=O)([O-])C(F)(F)F" reported_metric="activity coefficient" endpoint_result=17.5
molecule="C=CCCCC [hex-1-ene] + CCCC[n+]1cccc(C)c1.O=S(=O)([O-])C(F)(F)F" reported_metric="activity coefficient" endpoint_result=10.9

Let us move to another entry and its activity coefficient.
Ask: Tell me its activity coefficient given Cc1ccccc1 [toluene] + CCCC[n+]1cccc(C)c1.O=S(=O)([O-])C(F)(F)F as the entry.
Result: 1.82

---

# Method description: activity coefficient (dimensionless); of the first substance listed, at infinite dilution; xn = mol fraction of the nth substance listed
# Study conditions: 338.15 K; 101 kPa; Liquid; Chromatography; x1 = 0
activity coefficient values, listed per item
Number only, please.

molecule="CCCCCC [hexane] + CCCC[n+]1cccc(C)c1.O=S(=O)([O-])C(F)(F)F" endpoint_result=20.9
molecule="C#CCCCCCC [1-octyne] + CCCC[n+]1cccc(C)c1.O=S(=O)([O-])C(F)(F)F" endpoint_result=6.05
molecule="CCc1ccccc1 [ethylbenzene] + CCCC[n+]1cccc(C)c1.O=S(=O)([O-])C(F)(F)F" endpoint_result=2.8
molecule="CCCC(C)=O [pentan-2-one] + CCCC[n+]1cccc(C)c1.O=S(=O)([O-])C(F)(F)F" endpoint_result=1.38
molecule="CCCCCCC [heptane] + CCCC[n+]1cccc(C)c1.O=S(=O)([O-])C(F)(F)F" endpoint_result=29

Ask: Tell me its activity coefficient given C=CCCCCC [1-heptene] + CCCC[n+]1cccc(C)c1.O=S(=O)([O-])C(F)(F)F as the entry.
Result: 15.4

Ask: Tell me its activity coefficient given c1ccccc1 [benzene] + CCCC[n+]1cccc(C)c1.O=S(=O)([O-])C(F)(F)F as the entry.
Result: 1.27

Ask: Tell me its activity coefficient given C=CCCC [1-pentene] + CCCC[n+]1cccc(C)c1.O=S(=O)([O-])C(F)(F)F as the entry.
Result: 8.03

Ask: Tell me its activity coefficient given C1CCCC1 [cyclopentane] + CCCC[n+]1cccc(C)c1.O=S(=O)([O-])C(F)(F)F as the entry.
Result: 8.15

---

# Method description: activity coefficient (dimensionless); of the first substance listed, at infinite dilution; xn = mol fraction of the nth substance listed
# Study conditions: 328.15 K; 101 kPa; Liquid; Chromatography; x1 = 0
Reported metric: activity coefficient
Number only, please.

Example cases with answers are listed next.
molecule="O [water] + CCCC[n+]1cccc(C)c1.O=S(=O)([O-])C(F)(F)F" endpoint_result=0.857
molecule="Cc1ccccc1 [toluene] + CCCC[n+]1cccc(C)c1.O=S(=O)([O-])C(F)(F)F" endpoint_result=1.79
molecule="CCCCO [butan-1-ol] + CCCC[n+]1cccc(C)c1.O=S(=O)([O-])C(F)(F)F" endpoint_result=1.34
molecule="C=CCCCCCC [oct-1-ene] + CCCC[n+]1cccc(C)c1.O=S(=O)([O-])C(F)(F)F" endpoint_result=22.3
molecule="C1CCCCCC1 [cycloheptane] + CCCC[n+]1cccc(C)c1.O=S(=O)([O-])C(F)(F)F" endpoint_result=14.6

Ask: Tell me its activity coefficient given CCCCC [pentane] + CCCC[n+]1cccc(C)c1.O=S(=O)([O-])C(F)(F)F as the entry.
Result: 16.4

---

# Method description: activity coefficient (dimensionless); of the first substance listed, at infinite dilution; xn = mol fraction of the nth substance listed
# Study conditions: 328.15 K; 101 kPa; Liquid; Chromatography; x1 = 0
# if measured activity coefficient < 20: Criterion met  # else: Criterion not met

Ask: Does CCCCCCCCCC [decane] + CCCC[n+]1cccc(C)c1.O=S(=O)([O-])C(F)(F)F have activity coefficient strictly under 20?
Result: Criterion not met

Ask: Does Cc1cccc(C)c1 [1,3-dimethylbenzene] + CCCC[n+]1cccc(C)c1.O=S(=O)([O-])C(F)(F)F have activity coefficient strictly under 20?
Result: Criterion met

Ask: Does c1ccccc1 [benzene] + CCCC[n+]1cccc(C)c1.O=S(=O)([O-])C(F)(F)F have activity coefficient strictly under 20?
Result: Criterion met

Ask: Does C=CCCCCC [1-heptene] + CCCC[n+]1cccc(C)c1.O=S(=O)([O-])C(F)(F)F have activity coefficient strictly under 20?
Result: Criterion met

Ask: Does CCCCCCCC [octane] + CCCC[n+]1cccc(C)c1.O=S(=O)([O-])C(F)(F)F have activity coefficient strictly under 20?
Result: Criterion not met

Ask: Does CCCCCC [hexane] + CCCC[n+]1cccc(C)c1.O=S(=O)([O-])C(F)(F)F have activity coefficient strictly under 20?
Result: Criterion not met

Ask: Does CCCCCCC [heptane] + CCCC[n+]1cccc(C)c1.O=S(=O)([O-])C(F)(F)F have activity coefficient strictly under 20?
Result: Criterion not met

Ask: Does CCc1ccccc1 [ethylbenzene] + CCCC[n+]1cccc(C)c1.O=S(=O)([O-])C(F)(F)F have activity coefficient strictly under 20?
Result: Criterion met

Ask: Does COC(C)(C)C [2-methoxy-2-methylpropane] + CCCC[n+]1cccc(C)c1.O=S(=O)([O-])C(F)(F)F have activity coefficient strictly under 20?
Result: Criterion met

Ask: Does CCCC(C)=O [pentan-2-one] + CCCC[n+]1cccc(C)c1.O=S(=O)([O-])C(F)(F)F have activity coefficient strictly under 20?
Result: Criterion met

Ask: Does CCCOCCC [dipropyl ether] + CCCC[n+]1cccc(C)c1.O=S(=O)([O-])C(F)(F)F have activity coefficient strictly under 20?
Result: Criterion met

Ask: Does C#CCCCCC [1-heptyne] + CCCC[n+]1cccc(C)c1.O=S(=O)([O-])C(F)(F)F have activity coefficient strictly under 20?
Result: Criterion met
